Listing: pKi of selected compounds
# TESTED SYSTEM: JAK2 (Homo sapiens (Human), UniProt O60674)
# Sequence (O60674 whole entry): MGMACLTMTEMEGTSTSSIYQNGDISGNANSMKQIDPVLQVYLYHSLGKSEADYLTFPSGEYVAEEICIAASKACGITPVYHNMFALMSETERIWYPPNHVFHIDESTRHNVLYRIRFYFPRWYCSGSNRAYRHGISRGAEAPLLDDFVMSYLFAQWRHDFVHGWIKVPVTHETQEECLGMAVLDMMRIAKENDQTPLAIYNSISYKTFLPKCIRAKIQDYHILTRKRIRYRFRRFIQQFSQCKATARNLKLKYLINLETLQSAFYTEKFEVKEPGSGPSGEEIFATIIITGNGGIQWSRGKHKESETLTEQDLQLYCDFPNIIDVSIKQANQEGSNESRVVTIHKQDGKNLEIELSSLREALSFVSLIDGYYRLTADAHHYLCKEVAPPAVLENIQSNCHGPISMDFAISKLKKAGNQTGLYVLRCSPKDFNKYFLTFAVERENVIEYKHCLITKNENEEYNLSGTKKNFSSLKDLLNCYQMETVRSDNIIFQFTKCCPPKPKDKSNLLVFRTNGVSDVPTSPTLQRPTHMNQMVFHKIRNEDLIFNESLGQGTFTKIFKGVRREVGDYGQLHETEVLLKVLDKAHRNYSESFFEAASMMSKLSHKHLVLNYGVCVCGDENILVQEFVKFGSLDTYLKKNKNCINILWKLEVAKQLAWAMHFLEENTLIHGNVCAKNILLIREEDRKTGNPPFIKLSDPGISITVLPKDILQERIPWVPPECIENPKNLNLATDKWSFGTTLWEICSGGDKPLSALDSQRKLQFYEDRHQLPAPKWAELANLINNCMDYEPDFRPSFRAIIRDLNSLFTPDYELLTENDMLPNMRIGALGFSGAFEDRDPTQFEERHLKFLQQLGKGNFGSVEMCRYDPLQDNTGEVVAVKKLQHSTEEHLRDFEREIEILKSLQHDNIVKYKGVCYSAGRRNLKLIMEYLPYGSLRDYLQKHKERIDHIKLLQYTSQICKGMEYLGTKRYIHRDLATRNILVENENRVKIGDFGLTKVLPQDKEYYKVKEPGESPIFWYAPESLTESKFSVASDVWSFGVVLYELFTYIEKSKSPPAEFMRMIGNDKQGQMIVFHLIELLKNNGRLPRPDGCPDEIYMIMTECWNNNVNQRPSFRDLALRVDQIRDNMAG
# EXPERIMENT DESCRIPTION: JAK2 activity inhibition assay (radioactive kinase assay / Caliper assay)
# Format: biochemical
# EXPERIMENTAL PARAMETERS: read-out: JAK2 Ki
pKi: −log10 of the molar value.

Sample O=C(O)Cn1cc(Nc2nc(-c3c(F)cccc3F)nc3c2C(=O)NC3)cn1 — what was its pKi?
< 6.00

----------
Listing: Ki of selected compounds
# TESTED SYSTEM: TYK2 (Homo sapiens (Human))
# Sequence (P29597 whole entry): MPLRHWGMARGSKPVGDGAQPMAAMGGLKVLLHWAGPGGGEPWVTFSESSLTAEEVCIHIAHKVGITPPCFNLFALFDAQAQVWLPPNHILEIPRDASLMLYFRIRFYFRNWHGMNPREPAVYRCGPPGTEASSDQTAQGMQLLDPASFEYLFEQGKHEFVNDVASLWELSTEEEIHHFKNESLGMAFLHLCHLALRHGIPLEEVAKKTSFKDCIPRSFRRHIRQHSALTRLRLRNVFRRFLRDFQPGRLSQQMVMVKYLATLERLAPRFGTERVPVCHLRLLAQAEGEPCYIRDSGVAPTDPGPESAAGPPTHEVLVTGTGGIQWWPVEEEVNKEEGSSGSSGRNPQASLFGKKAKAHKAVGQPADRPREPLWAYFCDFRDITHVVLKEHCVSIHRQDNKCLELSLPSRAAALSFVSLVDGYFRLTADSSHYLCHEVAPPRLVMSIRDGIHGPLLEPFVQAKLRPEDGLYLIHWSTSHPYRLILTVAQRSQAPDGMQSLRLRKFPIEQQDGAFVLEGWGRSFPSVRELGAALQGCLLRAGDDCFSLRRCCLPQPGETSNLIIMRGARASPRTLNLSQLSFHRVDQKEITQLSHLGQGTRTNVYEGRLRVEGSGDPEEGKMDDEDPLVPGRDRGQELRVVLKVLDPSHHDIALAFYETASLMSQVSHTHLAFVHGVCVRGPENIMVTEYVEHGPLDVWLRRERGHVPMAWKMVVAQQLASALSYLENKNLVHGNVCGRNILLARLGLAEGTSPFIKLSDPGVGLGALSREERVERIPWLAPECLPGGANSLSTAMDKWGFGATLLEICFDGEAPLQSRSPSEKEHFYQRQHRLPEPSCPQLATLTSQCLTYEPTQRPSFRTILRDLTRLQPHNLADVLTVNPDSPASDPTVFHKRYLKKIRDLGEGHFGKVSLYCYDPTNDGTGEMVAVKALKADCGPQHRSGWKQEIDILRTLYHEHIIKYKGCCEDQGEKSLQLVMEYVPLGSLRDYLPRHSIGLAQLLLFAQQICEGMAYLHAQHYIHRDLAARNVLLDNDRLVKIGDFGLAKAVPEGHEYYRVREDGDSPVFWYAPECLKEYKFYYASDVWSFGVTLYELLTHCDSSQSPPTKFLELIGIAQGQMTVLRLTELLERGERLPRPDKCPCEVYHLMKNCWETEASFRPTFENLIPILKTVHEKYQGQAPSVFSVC
# EXPERIMENT DESCRIPTION: Tyk2 activity inhibition assay (radioactive kinase assay / Caliper assay)
# Type: biochemical

The examples below pair each entry with its known result.
COC(=O)Cc1ncc(Nc2nc(-c3c(F)cccc3F)nc3c2C(=O)NC3)cn1 [Compound I-166] : 100 to 1000 nM
C[C@H](C(=O)N1CCCCC1)c1ccc(Nc2nc(-c3c(F)cccc3F)nc3c2C(=O)NC3)cc1 [Compound I-206] : < 10 nM
CC1(c2ccc(Nc3nc(-c4c(F)cccc4F)nc4c3C(=O)NC4)cc2)NC(=O)NC1=O (centres unmarked) [Compound I-172] : < 10 nM
C[C@]1(c2ccc(Nc3nc(-c4c(F)cccc4F)nc4c3C(=O)NC4)cc2)CCN(C2CCOCC2)C1=O [Compound I-126] : < 10 nM

Request - read-out Ki | tested on TYK2 (Homo sapiens (Human)) | compound O=C1NCc2nc(-c3c(F)cccc3F)nc(Nc3ccccc3)c21 [Compound I-179]
10 to 100 nM
